This section presents molecules with their documented IC50 values.
Molecular target: HDAC1 (Homo sapiens, UniProt Q13547)
Sequence (Q13547 whole entry): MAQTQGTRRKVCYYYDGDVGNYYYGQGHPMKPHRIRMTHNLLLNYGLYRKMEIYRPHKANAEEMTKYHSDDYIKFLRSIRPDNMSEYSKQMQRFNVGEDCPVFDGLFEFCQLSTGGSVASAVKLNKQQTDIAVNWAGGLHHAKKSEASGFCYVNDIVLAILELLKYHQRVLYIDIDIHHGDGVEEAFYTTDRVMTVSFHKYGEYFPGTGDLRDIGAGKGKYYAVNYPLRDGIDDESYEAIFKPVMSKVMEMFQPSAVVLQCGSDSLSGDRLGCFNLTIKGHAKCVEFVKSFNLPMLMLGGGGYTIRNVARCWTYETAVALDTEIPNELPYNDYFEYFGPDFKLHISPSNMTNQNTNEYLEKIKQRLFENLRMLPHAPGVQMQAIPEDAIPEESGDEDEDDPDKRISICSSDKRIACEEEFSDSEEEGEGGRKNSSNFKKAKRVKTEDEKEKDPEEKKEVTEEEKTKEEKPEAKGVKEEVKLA
Assay: Test of HDAC activities, HDAC1 Fluorimetric Drug Discovery Assay Kit
Type: biochemical
Design: purchased Enzolifesciences BML-AK511
Details: samples at 100, 1000, 10000 nM; 37° C. 60 minutes; fluorescence Ex 390, Em 460; read-out: HDAC inhibitory activities, HDAC1
MEASURED_QUANTITY: IC50 (nM)

INSERT INTO measurements (molecule, observed_value) VALUES
  ('CCN1CCN(C(=O)N(Cc2ccc(C(=O)NO)cc2)c2ccc(F)c(Cl)c2)CC1', 280),
  ('O=C(NO)c1ccc(CN(C(=O)N2CCOCC2)c2ncccn2)cc1', 22700),
  ('O=C(NO)c1ccc(CN(C(=O)N2CC[C@H](F)C2)c2ccc(C(F)(F)F)cc2)cc1', 261),
  ('CC1CN(C(=O)N(Cc2ccc(C(=O)NO)cc2)c2cccc(OC(F)(F)F)c2)CC(C)O1 (centres unmarked)', 633),
  ('O=C(NO)c1ccc(CN(C(=O)N2CCC[C@H]2C(F)(F)F)c2cccc(C(F)(F)F)c2)cc1', 4710),
  ('O=C(NO)c1ccc(CN(C(=O)N2CCOCC2)c2cccc(-c3ccoc3)c2)cc1', 170),
  ('CC(C)NC(=O)N1CCC(c2cccc(N(Cc3ccc(C(=O)NO)cc3)C(=O)N3CCOCC3)c2)CC1', 1260),
  ('O=C(NO)c1ccc(CN(C(=O)N2CCOCC2)c2cccc(-c3ccc4cc[nH]c4c3)c2)cc1', 72);

---

Target: HDAC1 (Homo sapiens, UniProt Q13547)
Experiment: Test of HDAC activities, HDAC1 Fluorimetric Drug Discovery Assay Kit
Format: biochemical
Parameters: purchased Enzolifesciences BML-AK511
Conditions: samples at 100, 1000, 10000 nM; 37° C. 60 minutes; fluorescence Ex 390, Em 460; read-out: HDAC inhibitory activities, HDAC1
pIC50: −log10 of the molar value.
# reported pIC50; entries follow
MEASURED_QUANTITY: pIC50

INSERT INTO results (compound_structure, observed_value) VALUES
  ('Cn1ncc2ccc(-c3cccc(N(Cc4ccc(C(=O)NO)cc4)C(=O)N4CCOCC4)c3)cc21', 6.76),
  ('O=C(NO)c1ccc(CN(C(=O)N2CCOCC2)c2nc(-c3ccccc3)cs2)cc1', 6.15),
  ('O=C(NO)c1ccc(CN(C(=O)N2CCOCC2)c2cccc(-c3cc(C(F)(F)F)cc(C(F)(F)F)c3)c2)cc1', 5.35),
  ('O=C(NO)c1ccc(CN(C(=O)N2CCN(C(=O)C3CC3)CC2)c2cccc(-c3ccc4c(c3)OCO4)c2)cc1', 6.20),
  ('CC(C)(O)CN1CCC(c2cccc(N(Cc3ccc(C(=O)NO)cc3)C(=O)N3CCOCC3)c2)CC1', 6.37),
  ('CC(=O)N1CCN(C(=O)N(Cc2ccc(C(=O)NO)cc2)c2cccc(F)c2)CC1', 6.24),
  ('O=C(NO)c1ccc(CN(C(=O)N2CCCCC2)c2ccc(Cl)c(C(F)(F)F)c2)cc1', 5.11);

---

Molecular target: HDAC 8 (Homo sapiens, UniProt Q9BY41)
Sequence (Q9BY41 whole entry): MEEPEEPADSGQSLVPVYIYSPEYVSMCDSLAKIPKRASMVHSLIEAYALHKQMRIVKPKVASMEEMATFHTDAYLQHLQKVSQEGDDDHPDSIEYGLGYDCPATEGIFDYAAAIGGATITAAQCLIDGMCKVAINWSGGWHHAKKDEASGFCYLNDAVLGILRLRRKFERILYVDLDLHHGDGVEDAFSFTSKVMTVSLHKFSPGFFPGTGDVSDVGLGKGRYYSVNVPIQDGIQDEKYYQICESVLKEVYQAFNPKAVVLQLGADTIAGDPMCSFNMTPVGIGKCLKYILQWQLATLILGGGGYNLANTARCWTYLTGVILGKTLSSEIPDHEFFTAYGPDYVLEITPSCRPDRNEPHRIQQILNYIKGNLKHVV
pIC50: −log10 of the molar value.
MEASURED_QUANTITY: pIC50

INSERT INTO measurements (compound, measured_quantity, observed_value) VALUES
  ('O=C(NO)c1ccc(CN(C(=O)N2CCOCC2)c2cccc(Br)c2)cc1 [Compound 255]', 'pIC50', 6.19);

---

Biological target: HDAC 6 (Homo sapiens, UniProt Q9UBN7)
Assay: Test of HDAC activities, HDAC6 (fluorimetric)
Type: biochemical
Design: purchased Calbiochem 382180
Details: samples at 0.1, 1, 10, 100, 1000 nM; 37° C. 60 minutes; fluorescence Ex 390, Em 460; read-out: HDAC inhibitory activities, HDAC6
Threshold check on IC50: strictly below 9 nM is criterion met; on or above 9 nM is criterion not met.

INSERT INTO results (molecule, cat) VALUES
  ('CC(=O)N1CCC(c2cccc(N(Cc3ccc(C(=O)NO)cc3)C(=O)N3CCOCC3)c2)CC1', 'criterion not met'),
  ('CC1CN(C(=O)N(Cc2ccc(C(=O)NO)cc2)c2cccc(C(F)(F)F)c2)CC(C)O1 (centres unmarked)', 'criterion met'),
  ('O=C(NO)c1ccc(CN(C(=O)N2CCOCC2)c2cccc(C(F)(F)F)n2)cc1', 'criterion not met'),
  ('O=C(NO)c1ccc(CN(C(=O)N2CCOCC2)c2cccc(OC(F)(F)F)c2)cc1', 'criterion met'),
  ('O=C(NO)c1ccc(CN(C(=O)N2CC[C@@H](F)C2)c2cccc(C(F)(F)F)c2)cc1', 'criterion not met'),
  ('O=C(NO)c1ccc(CN(C(=O)N2CCOCC2)c2cccc(C3=CCOCC3)c2)cc1', 'criterion met'),
  ('O=C(NO)c1ccc(CN(C(=O)N2CC[C@H](F)C2)c2cccc(C(F)(F)F)c2)cc1', 'criterion met'),
  ('O=C(NO)c1ccc(CN(C(=O)N2CCC[C@H]2C(F)(F)F)c2cccc(C(F)(F)F)c2)cc1', 'criterion not met'),
  ('O=C(NO)c1ccc(CN(C(=O)N2CCC(O)(c3ccccc3)CC2)c2ncccn2)cc1', 'criterion not met'),
  ('O=C(NO)c1ccc(CN(C(=O)N2CCN(c3ccncc3)CC2)c2ccc(C(F)(F)F)cc2)cc1', 'criterion not met'),
  ('Cc1ccc(N(Cc2ccc(C(=O)NO)cc2)C(=O)N2CCN(c3ccc(F)cc3)CC2)c(F)c1', 'criterion met'),
  ('O=C(NO)c1ccc(CN(C(=O)N2CCCCC2)c2cccc(C(F)(F)F)c2)cc1', 'criterion met'),
  ('O=C(NO)c1ccc(CN(C(=O)N2CCOCC2)c2cccc(CF)c2)cc1', 'criterion met'),
  ('O=C(NO)c1ccc(CN(C(=O)N2CCOCC2)c2ccc(OC(F)(F)F)cc2)cc1', 'criterion met'),
  ('O=C(NO)c1ccc(CN(C(=O)N2CC[C@H](F)C2)c2ccc(C(F)(F)F)cc2)cc1', 'criterion not met'),
  ('O=C(NO)c1ccc(CN(C(=O)N2CCCCC2)c2ccc(F)cc2F)cc1', 'criterion met'),
  ('O=C(NO)c1ccc(CN(C(=O)N2CCN(CCO)CC2)c2cccc(-c3ccc4c(c3)OCO4)c2)cc1', 'criterion met'),
  ('CC(C)(F)CN1CCC(c2cccc(N(Cc3ccc(C(=O)NO)cc3)C(=O)N3CCOCC3)c2)CC1', 'criterion not met'),
  ('COc1ccccc1N1CCN(C(=O)N(Cc2ccc(C(=O)NO)cc2)c2ccc(C)cc2F)CC1', 'criterion met'),
  ('CN1CCN(C(=O)N(Cc2ccc(C(=O)NO)cc2)c2ccccn2)CC1', 'criterion not met'),
  ('O=C(NO)c1ccc(CN(C(=O)N2CCN(Cc3ccccc3)CC2)c2ccccn2)cc1', 'criterion met'),
  ('CC1CCN(C(=O)N(Cc2ccc(C(=O)NO)cc2)c2cccc(C(F)(F)F)c2)CC1', 'criterion not met'),
  ('O=C(NO)c1ccc(CN(C(=O)N2CCOCC2)c2cccc(-c3ccc4c(c3)OCO4)c2)cc1', 'criterion met'),
  ('O=C(NO)c1ccc(CN(C(=O)N2CCC(O)CC2)c2cccc(C3=CCOCC3)c2)c(F)c1', 'criterion not met'),
  ('O=C(NO)c1ccc(CN(C(=O)N2CCOCC2)c2cc(C(F)(F)F)ccc2Cl)cc1', 'criterion not met'),
  ('O=C(NO)c1ccc(CN(C(=O)N2CCC[C@@H]2CO)c2cccc(C(F)(F)F)c2)cc1', 'criterion met'),
  ('Cc1ccc(N2CCN(C(=O)N(Cc3ccc(C(=O)NO)cc3)c3ccccn3)CC2)cc1C', 'criterion met'),
  ('CCN1CCN(C(=O)N(Cc2ccc(C(=O)NO)cc2)c2cccc(C(F)(F)F)n2)CC1', 'criterion not met'),
  ('O=C(NO)c1ccc(CN(C(=O)N2CCOCC2)c2ccccn2)cc1', 'criterion met'),
  ('CC(C)(F)CN1CCN(C(=O)N(Cc2ccc(C(=O)NO)cc2)c2cccc(CF)c2)CC1', 'criterion met'),
  ('COc1ccc(C(F)(F)F)cc1N(Cc1ccc(C(=O)NO)cc1)C(=O)N1CCOCC1', 'criterion not met');

---

Molecular target: HDAC 6 (Homo sapiens, UniProt Q9UBN7)
Sequence (Q9UBN7 1-1215): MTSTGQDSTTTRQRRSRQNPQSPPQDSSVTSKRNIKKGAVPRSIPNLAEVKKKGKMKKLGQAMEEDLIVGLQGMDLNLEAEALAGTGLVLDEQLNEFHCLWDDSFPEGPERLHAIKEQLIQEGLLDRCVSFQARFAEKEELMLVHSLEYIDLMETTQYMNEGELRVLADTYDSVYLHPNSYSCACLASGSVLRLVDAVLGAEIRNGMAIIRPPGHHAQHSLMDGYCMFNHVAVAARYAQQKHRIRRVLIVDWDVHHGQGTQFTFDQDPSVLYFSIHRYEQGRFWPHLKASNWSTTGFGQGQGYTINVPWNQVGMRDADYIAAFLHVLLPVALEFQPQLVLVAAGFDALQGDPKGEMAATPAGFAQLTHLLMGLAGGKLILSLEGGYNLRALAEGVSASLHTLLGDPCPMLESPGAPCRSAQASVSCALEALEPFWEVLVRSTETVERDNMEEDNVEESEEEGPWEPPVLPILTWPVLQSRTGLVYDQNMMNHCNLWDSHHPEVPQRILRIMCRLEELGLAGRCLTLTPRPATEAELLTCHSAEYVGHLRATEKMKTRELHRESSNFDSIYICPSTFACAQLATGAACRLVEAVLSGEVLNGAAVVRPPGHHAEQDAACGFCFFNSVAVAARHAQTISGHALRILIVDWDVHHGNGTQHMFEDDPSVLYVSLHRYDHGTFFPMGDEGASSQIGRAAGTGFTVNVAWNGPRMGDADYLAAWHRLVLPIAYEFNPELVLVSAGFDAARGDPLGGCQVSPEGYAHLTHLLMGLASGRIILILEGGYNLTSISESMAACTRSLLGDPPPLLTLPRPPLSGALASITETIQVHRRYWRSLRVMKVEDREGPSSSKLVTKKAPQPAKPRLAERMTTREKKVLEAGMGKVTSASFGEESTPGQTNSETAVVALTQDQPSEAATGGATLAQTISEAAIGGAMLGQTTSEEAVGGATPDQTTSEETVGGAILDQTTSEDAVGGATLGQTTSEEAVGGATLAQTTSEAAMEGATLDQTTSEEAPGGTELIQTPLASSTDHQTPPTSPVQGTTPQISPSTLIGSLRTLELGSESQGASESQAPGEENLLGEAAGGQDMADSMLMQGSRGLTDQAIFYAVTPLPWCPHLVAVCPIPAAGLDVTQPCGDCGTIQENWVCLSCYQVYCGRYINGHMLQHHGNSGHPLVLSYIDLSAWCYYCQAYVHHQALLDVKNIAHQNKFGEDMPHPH
Assay: Test of HDAC activities, HDAC6 (fluorimetric)
Format: biochemical
Design: purchased Calbiochem 382180
Settings: samples at 0.1, 1, 10, 100, 1000 nM; 37° C. 60 minutes; fluorescence Ex 390, Em 460; read-out: HDAC inhibitory activities, HDAC6
pIC50: −log10 of the molar value.
Param threshold (8) applies to pIC50; output t when value >= threshold, f when value < threshold.

INSERT INTO assay_data (compound, cat) VALUES
  ('CC1CN(C(=O)N(Cc2ccc(C(=O)NO)cc2)c2cccc(OC(F)(F)F)c2)CC(C)O1 (centres unmarked) [Compound 800]', 'f'),
  ('O=C(NO)c1ccc(CN(C(=O)N2CCOCC2)c2nc(-c3ccc(Cl)cc3)cs2)cc1 [Compound 371]', 'f'),
  ('CCN1CCN(C(=O)N(Cc2ccc(C(=O)NO)cc2)c2ccc(C)cc2F)CC1 [Compound 453]', 't'),
  ('Cc1ccc(N(Cc2ccc(C(=O)NO)cc2)C(=O)N2CC(C)OC(C)C2)c(F)c1 (centres unmarked) [Compound 440]', 't'),
  ('CC(=O)N1CCN(C(=O)N(Cc2ccc(C(=O)NO)cc2)c2cccc(F)c2)CC1 [Compound 529]', 't'),
  ('O=C(NO)c1ccc(CN(C(=O)N2CC[C@@H](F)C2)c2ccc(C(F)(F)F)cc2)cc1 [Compound 520]', 'f');
